B1: OR4K15 (parent)
chain: GUUAACGGUCAUAGGCCAUGGAAACUAGGAGCACCAUUUCGCUGCCAGUGAAGAAAUGAACAAAGAAAAUCUGGGCCAGGCAGGCAUCAAAAGAAAUAGUCUUGCGCUCAACCAGAAAGUCUGUAAUCAUUUUAAGGGUA

Variants of: B1
Experiment: self-cleavage, relative activity (ratio to wild type); higher = more cleavage; in vitro, sequencing; the parent is a self-cleaving ribozyme
Collected self-cleavage values appear next to each entry.

variantDescription: U127C U131C
self-cleavage: 0.51
//
variantDescription: A22U G53A
self-cleavage: 1.47
//
variantDescription: U100C U102A
self-cleavage: 2.36
//
variantDescription: C45U A114G
self-cleavage: 0.75
//
variantDescription: A86C U102C
self-cleavage: 1.29
//
variantDescription: A47G U102A
self-cleavage: 0.78
//
variantDescription: A63G U131G
self-cleavage: 1.99
//
variantDescription: C40A A117G
self-cleavage: 2.53
//
variantDescription: A11U A114U
self-cleavage: 0.05
//
variantDescription: A59G G104A
self-cleavage: 0.06
//
variantDescription: U57G U87A
self-cleavage: 1.47
//
variantDescription: G20A A69G
self-cleavage: 1
//
variantDescription: U2A U102C
self-cleavage: 1.15
//
variantDescription: U57C U120C
self-cleavage: 0.41
//
variantDescription: A13U A78G
self-cleavage: 0.2
//
variantDescription: C81A A86G
self-cleavage: 0.16
//
variantDescription: C46U A116G
self-cleavage: 1.37
//
variantDescription: A52G U120A
self-cleavage: 2.19
//
variantDescription: U9C A63U
self-cleavage: 1.83
//
variantDescription: U9C A47G
self-cleavage: 1.08
//
variantDescription: G79A U127C
self-cleavage: 0.06
//
variantDescription: G79A A129G
self-cleavage: 0.17
//
variantDescription: C25U U70C
self-cleavage: 0.35
//
variantDescription: A56G U102A
self-cleavage: 0.97
//
variantDescription: G21A A60G
self-cleavage: 1.14
//
variantDescription: U103G G137U
self-cleavage: 0.05
//
variantDescription: A56U U97C
self-cleavage: 1.16
//
variantDescription: A59G A117U
self-cleavage: 0.95
//
variantDescription: A62G U132C
self-cleavage: 1.59
//
variantDescription: A66G A125G
self-cleavage: 0.25
